# Target or system: Homeobox protein Hox-A13 (Mus musculus)
# Test description: inhibitors of HoxA13-DNA binding, primary screen, biochemical, fluorescence polarization, labeled oligonucleotide (AID 1185)
# Cond: 15 min, higher = more signal, called active from +8 up or from −8 down
Reported endpoint: z-score
Please reply with the value in numeric form only.

# example entries with known answers
O=C1C2C=CC(C(O)c3cccc(O)c3)N(Nc3ccccc3)C2C(=O)N1c1ccccc1 (configuration not stated)
-1.18
CC1(C)C(=O)C(c2ccccc2)=C2CN3C(=O)N(CCc4ccccc4)C(=O)C3(Cc3ccc(F)cc3)C=C21 (configuration not stated)
-1.99
O=C1C2C=CC(C(O)c3ccco3)N(Nc3ccccc3)C2C(=O)N1c1ccccc1 (configuration not stated)
-2.27
COCCCNC(=O)[C@@]1(c2ccc([N+](=O)[O-])cc2)CC(=O)N(CC23CC4CC(CC(C4)C2)C3)[C@@H]1c1ccc(CO)cc1I
-4.38
COc1ccc(C(=O)Nc2cccc(CN3C(=O)[C@]4(O[C@H](CCn5cc([C@H](O)c6ccccc6)nn5)[C@@H]([Si](C)(C)c5ccc(OC)cc5)[C@@H]4C)c4ccccc43)c2)cc1
2
COc1ccc([Si](C)(C)[C@H]2[C@H](CC(=O)N3Cc4ccccc4C[C@H]3CO)O[C@@]3(C(=O)N(Cc4ccc(N5C(=O)c6cccc7cccc5c67)cc4)c4ccccc43)[C@@H]2C)cc1
-2.7
Cc1ccc(S[C@]2(C(=O)NC(C)C)CC(=O)N(C(C)C)[C@@H]2c2ccc(CO)cc2I)cc1
-2.58
CO[C@H]1O[C@H](CO)[C@@H](OC(=O)c2ccc(Br)cc2)[C@@H]2OC(=O)[C@H](Cc3ccccc3)C/C=C/C[C@@H](Cc3ccccc3)C(=O)O[C@@H]12
-5.27
COC(=O)C1N=C(c2ccc(OCCCO)cc2)N(c2ccccc2)O1 (configuration not stated)
-3.85
C=CCN1C(=O)[C@]2(O[C@H](CCO)[C@@H]([Si](C)(C)c3ccc(OC)cc3)[C@@H]2C)c2cc(N3C(=O)COc4ccccc43)ccc21
-3.34

Query: Form field: reported z-score of C=CCC(OC(C)=O)[C@@H]1[C@@H](N(Cc2ccc(-c3cccc(C(F)(F)F)c3)o2)C(=O)c2ccc(C)cc2)c2cc(OCCCO)ccc2N1C(=O)Cc1ccc(OC)cc1 (some centres not stated)
Reply: -0.791

Query: Form field: reported z-score of CC1CC/C=C\[C@H]2OC34C=CCN(C(C)(C)C)C(=O)[C@H]3N(C(CO)C(C)C)C(=O)[C@@H]4C2C(=O)O1 (some centres not stated)
Reply: -5.73

Query: Form field: reported z-score of CC(C)[C@H]1NC(=O)[C@@]23C(=O)N[C@@H](Cc4ccccc4)C2[C@H](C)[C@@]2(C)O[C@H]2C3/C=C/CCC/C=C/CNC(=O)[C@H](Cc2ccccc2)NC1=O (some centres not stated)
Reply: -6.22

====

# Test description: FRG1 promoter luciferase signal modulators, primary screen, FRG1 inhibition for FSHD, cell-based, C2C12 myotubes, firefly/Renilla luciferase, luminescence (AID 1084)
# Cond: higher = more signal, called active from +8 up or from −8 down
Rule: criterion met for z-score not less than -0.04, criterion not met for anything less.

C=CCNC(=O)[C@@H]1[C@H]2C(=O)O[C@H](c3ccccc3)[C@H](c3ccccc3)N2[C@H](c2ccc(OCCO)cc2)[C@@]12C(=O)N(C(=O)OCCOC)c1ccc(C#CCCO)cc12
criterion not met
CC(CO)N1C(=O)[C@@H]2[C@H]3C(=O)OCC=C[C@H]3OC23C=CCN(c2ccc(Cl)cc2)C(=O)[C@@H]13 (some centres undefined)
criterion met
CN(C)CCCCCCNC(=O)[C@@H]1C[C@@H]2C(=O)N[C@@H](CCCCN)C(=O)N2[C@@H]1c1ccc(O)cc1
criterion met

Query: Please tell me: is the molecule COC(=O)C1N=C(c2ccc(OCCCO)cc2)N(c2ccccc2)O1 (centres undefined) at or over -0.04 in terms of z-score?
Reply: criterion met

Query: Please tell me: is the molecule Cc1cccc([C@H]2C[C@H]3C(Br)=C[C@@H]2C(=O)[C@]32CO2)c1 at or over -0.04 in terms of z-score?
Reply: criterion met

Query: Please tell me: is the molecule COc1ccc(C(O)C2C=CC3C(=O)N(c4ccccc4)C(=O)C3N2Nc2ccccc2)cc1 (centres undefined) at or over -0.04 in terms of z-score?
Reply: criterion not met
